- TEST: inhibitors of cytokine-induced beta cell apoptosis, primary screen, luminescence (AID 435005);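 also: 0% = cytokine-treated negative control wells and 100% = positive control rescue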
- CONDITION_PARAMETERS: INS-1E cytokine-induced death, ATP luminescence, 48 h; percent of positive-control rescue, neutral wells zero; concentration not given here
The campaign covered roughly 300,000 compounds. About 2,400 (0.8%) were called active.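 The calls were made as follows: active = Every replicate reaches about 75%, or at least half do and their mean reaches it too (limit read from the data); inconclusive = At least half of replicates reach the limit but their mean does not; inactive = Under half of replicates reach the limit.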 The sample holds actives, similar compounds and a random draw of the others, so the mix is not that of the screen.
A correct response names exactly one class from T (active), F (inactive)

[Q] Kindly provide the recorded test outcome for the following molecule: `Cc1noc(C)c1S(=O)(=O)N(C)C[C@H]1Oc2ccc(NC(=O)C3CC3)cc2C(=O)N([C@H](C)CO)C[C@@H]1C`
[A] F

[Q] Kindly provide the recorded test outcome for the following molecule: `COc1ccc(N2CCN(C(C)=C3C(=O)c4ccccc4C3=O)CC2)cc1`
[A] F

[Q] Kindly provide the recorded test outcome for the following molecule: `COc1cccc(/C=N/Nc2ccc(Cl)nn2)c1`
[A] F

[Q] Kindly provide the recorded test outcome for the following molecule: `O=C(N[C@@H]1C/C=C\C[C@@H](CC(=O)N(CCO)Cc2ccccc2)C(=O)N[C@H](Cc2ccccc2)COC1=O)OCC1c2ccccc2-c2ccccc21`
[A] F

[Q] Kindly provide the recorded test outcome for the following molecule: `Oc1ccc2ccccc2c1N=Nc1nccs1`
[A] T

====

- TEST: inhibitors of cytokine-induced beta cell apoptosis, primary screen, luminescence (AID 435005);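 also: 0% = cytokine-treated negative control wells and 100% = positive control rescue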
- CONDITION_PARAMETERS: INS-1E cytokine-induced death, ATP luminescence, 48 h; stronger effect = higher value; percent of positive-control rescue, neutral wells zero; concentration not given here
Out of some 300,000 compounds screened, about 2,400 (0.8%) were called active. This is one part of a sample in which actives are shown more often than they occur.
Exercise: for every item that follows, state its recorded protection from apoptosis.
Report the figure in % without appending any unit label.

[Q] Can you look up the measured protection from apoptosis of `COc1ccc(-c2nc3cnccn3c2NC2CCCCC2)cc1-c1cccc(Cl)c1` for me?
[A] -8.81

[Q] Can you look up the measured protection from apoptosis of `CC(C)c1ccc(Cc2nnc(NCCCO)[nH]c2=O)cc1` for me?
[A] -1.74

[Q] Can you look up the measured protection from apoptosis of `COc1cc(OC)cc(C(=O)NNC(=O)Cc2cccs2)c1` for me?
[A] -2.67

[Q] Can you look up the measured protection from apoptosis of `Cc1ccc(/C=C/C(=O)Nc2ccc([N+](=O)[O-])c(NC(=O)/C=C/c3ccc(C)o3)c2)o1` for me?
[A] 2.69

[Q] Can you look up the measured protection from apoptosis of `COc1ccc(CNc2nc(NCc3ccc(OC)cc3)c3ncn(C4CCCC4)c3n2)cc1` for me?
[A] -10.2

[Q] Can you look up the measured protection from apoptosis of `O=C(c1ccc(OC2CCN(Cc3ccccn3)CC2)cc1)N1CCCCCC1` for me?
[A] -1.86

[Q] Can you look up the measured protection from apoptosis of `O=C(N/N=C/c1ccccc1O)/C(=C/c1ccccc1)CCO` for me?
[A] 85.8

[Q] Can you look up the measured protection from apoptosis of COc1cc(SC)ccc1C(=O)NNC(=O)C1COc2ccccc2O1 (configuration not stated) for me?
[A] -1.75

[Q] Can you look up the measured protection from apoptosis of `COC(=O)[C@]1(Cc2ccccc2)N[C@H](CN(C)S(=O)(=O)c2ccc(OC(F)(F)F)cc2)[C@@H]2C(=O)N(C)C(=O)[C@@H]21` for me?
[A] -3.66

[Q] Can you look up the measured protection from apoptosis of `O=C(CC(O)(C(F)(F)F)C(F)(F)F)Nc1ccc(Cl)c(Cl)c1` for me?
[A] 105

[Q] Can you look up the measured protection from apoptosis of `O=C(CCCO)N/N=C/c1cc(Br)ccc1O` for me?
[A] 2.57

[Q] Can you look up the measured protection from apoptosis of `C[C@H](CO)N1C[C@H](C)[C@@H](CN(C)S(=O)(=O)c2ccc(F)cc2)Oc2ccc(NC(=O)CCC(F)(F)F)cc2C1=O` for me?
[A] -4.6

====

- TEST: inhibitors of cytokine-induced beta cell apoptosis, primary screen, luminescence (AID 435005);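 also: 0% = cytokine-treated negative control wells and 100% = positive control rescue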
- CONDITION_PARAMETERS: INS-1E cytokine-induced death, ATP luminescence, 48 h; percent of positive-control rescue, neutral wells zero; concentration not given here
Out of some 300,000 compounds screened, about 2,400 (0.8%) were called active.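 How the source made its calls: active means Every replicate reaches about 75%, or at least half do and their mean reaches it too (limit read from the data); inconclusive means At least half of replicates reach the limit but their mean does not; inactive means Under half of replicates reach the limit.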 Shown is part of a subset that was picked to be rich in actives.
A correct response names exactly one class from yes for active, no for inactive

[Q] Kindly provide the recorded test outcome for the following compound: `O=C1/C(=C\c2cccnc2)CN(Cc2ccccc2)C/C1=C\c1cccnc1`
[A] yes

[Q] Kindly provide the recorded test outcome for the following compound: `COc1ccc(CC(=O)Nc2nc(-c3ccc(F)c(F)c3)cs2)cc1OC`
[A] yes

[Q] Kindly provide the recorded test outcome for the following compound: `COc1cc(CC(=O)Nc2nc(-c3ccc(F)c(F)c3)cs2)cc(OC)c1OC`
[A] yes

[Q] Kindly provide the recorded test outcome for the following compound: `c1ccc2cc(CCCc3cc4ccccc4cn3)ncc2c1`
[A] no

[Q] Kindly provide the recorded test outcome for the following compound: `CCCc1ccc(-c2csc(NC(=O)Cc3cccs3)n2)cc1`
[A] no

[Q] Kindly provide the recorded test outcome for the following compound: `O=C(COc1ccccc1F)NNC(=O)c1cc(Br)ccc1Cl`
[A] no

[Q] Kindly provide the recorded test outcome for the following compound: O=C(CSc1nc2ccccc2c(=O)n1Cc1ccc(F)cc1)NCC1CCCO1 (configuration not stated)
[A] no

====

- TEST: inhibitors of cytokine-induced beta cell apoptosis, primary screen, luminescence (AID 435005);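 also: 0% = cytokine-treated negative control wells and 100% = positive control rescue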
- CONDITION_PARAMETERS: INS-1E cytokine-induced death, ATP luminescence, 48 h; stronger effect = higher value; percent of positive-control rescue, neutral wells zero; concentration not given here
Screen size: about 300,000 compounds; about 2,400 (0.8%) were called active. What follows is part of a selection rich in actives, with near analogues and random picks from the rest.
MEASURED_QUANTITY: protection from apoptosis (%)
Report the figure in % without appending any unit label.

[Q] Can you look up the measured protection from apoptosis of `COc1ccc(C(=O)NCC(=O)N/N=C/c2ccc([N+](=O)[O-])s2)cc1OC` for me?
[A] 91.3

[Q] Can you look up the measured protection from apoptosis of `COc1ccc(C(=O)NCC(=O)N/N=C/c2ccc([N+](=O)[O-])o2)cc1OC` for me?
[A] -11.1

[Q] Can you look up the measured protection from apoptosis of `COC(=O)[C@]1(Cc2ccccc2)N[C@H](CN(C)S(=O)(=O)c2ccc(OC(F)(F)F)cc2)[C@@H]2C(=O)N(Cc3ccccc3)C(=O)[C@@H]21` for me?
[A] 10.5

[Q] Can you look up the measured protection from apoptosis of `COc1ccc(S(=O)(=O)N(C)C[C@@H]2Oc3ccc(NS(=O)(=O)c4cn(C)cn4)cc3C(=O)N([C@@H](C)CO)C[C@@H]2C)cc1` for me?
[A] -2.08

[Q] Can you look up the measured protection from apoptosis of `N#Cc1ccc(Oc2cc(C(F)(F)F)nc(-c3ccccn3)n2)cc1` for me?
[A] -3.82

[Q] Can you look up the measured protection from apoptosis of `COc1ccc(C(=O)COC(=O)c2ccc([N+](=O)[O-])s2)cc1OC` for me?
[A] 4.99

[Q] Can you look up the measured protection from apoptosis of `CC(C)(C)Nc1nc(-c2ccccn2)nc2ccccc12` for me?
[A] 118

[Q] Can you look up the measured protection from apoptosis of `COc1cccc(/C=N/NC(=O)c2[nH]nc3c2CCc2ccccc2-3)c1O` for me?
[A] 82.2

[Q] Can you look up the measured protection from apoptosis of `C[C@@H]1CN([C@@H](C)CO)C(=O)c2cc(NC(=O)C3CC3)ccc2O[C@H]1CN(C)C` for me?
[A] 0.593

[Q] Can you look up the measured protection from apoptosis of `CN1CCN(c2nc3c(c(=O)[nH]c(=O)n3C)n2Cc2cccc3ccccc23)CC1` for me?
[A] 2.14

====

Exercise: for every item that follows, state its recorded protection from apoptosis.
- TEST: inhibitors of cytokine-induced beta cell apoptosis, primary screen, luminescence (AID 435005);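 also: 0% = cytokine-treated negative control wells and 100% = positive control rescue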
- CONDITION_PARAMETERS: INS-1E cytokine-induced death, ATP luminescence, 48 h; stronger effect = higher value; percent of positive-control rescue, neutral wells zero; concentration not given here
About 2,400 (0.8%) of roughly 300,000 compounds were called active. This is one part of a sample in which actives are shown more often than they occur.

[Q] Can you look up the measured protection from apoptosis of `CCN(C[C@H]1N[C@@](Cc2ccccc2)(C(=O)OC)[C@H]2C(=O)N(Cc3ccccc3)C(=O)[C@@H]12)C(=O)c1ccc(C)cc1` for me?
[A] 13.6% (inactive)

[Q] Can you look up the measured protection from apoptosis of `CN(CC(=O)Nc1ccc(C(N)=O)cc1)S(=O)(=O)c1ccc2c(c1)OCCO2` for me?
[A] -4.98% (inactive)

[Q] Can you look up the measured protection from apoptosis of `CCOC(=O)C1CCN(CC(=O)Nc2ccc(OC)c(S(=O)(=O)N3CCCCC3)c2)CC1` for me?
[A] 0.731% (inactive)
